Data origin, for the record: paper PMC7503500

biological target: δ opioid receptor (DOR) (Homo sapiens, UniProt P41143); assay: Radioligand competition binding, DOR ([3H]-DADLE), HEK293 cell homogenates; details: read-out: DOR % (percent inhibition), at 10,000 nM
Sequence (P41143 whole entry): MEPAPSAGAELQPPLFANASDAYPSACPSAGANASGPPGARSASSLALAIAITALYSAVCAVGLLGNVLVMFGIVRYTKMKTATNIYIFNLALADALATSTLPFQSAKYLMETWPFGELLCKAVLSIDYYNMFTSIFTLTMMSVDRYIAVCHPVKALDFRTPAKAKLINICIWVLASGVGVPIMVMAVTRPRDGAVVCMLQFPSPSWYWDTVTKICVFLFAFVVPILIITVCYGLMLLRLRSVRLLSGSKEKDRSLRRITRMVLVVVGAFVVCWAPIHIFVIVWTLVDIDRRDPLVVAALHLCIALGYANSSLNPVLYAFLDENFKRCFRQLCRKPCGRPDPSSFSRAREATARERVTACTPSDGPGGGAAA
measured-parameter: inhibition at 10 µM (%)
Give the quantity in %, number only.

See these solved cases before continuing.
# molecule-smiles, measured-parameter, output-unit, numeric-value
records = [
    ("C#Cc1ccc2c(c1)C(c1ccccc1F)=N[C@@H](C)c1c(C(=O)NCC)ncn1-2", "inhibition at 10 µM", "%", 3),
    ("C#Cc1ccc2c(c1)C(c1ccccc1F)=N[C@@H](C)c1c(C(=O)NC3CC3)ncn1-2", "inhibition at 10 µM", "%", 24),
]

API: the following record is the query input.
INPUT: For the compound shown here, COC(=O)c1ncn2c1[C@@H](C)N=C(c1ccccc1F)c1cc(Br)ccc1-2 , give the reported inhibition at 10 µM.
OUTPUT: 4

---

target: synaptic benzodiazepine-sensitive receptors (BZR), GABAAR; assay: 3H-flunitrazepam binding, rat brain homogenate; details: read-out: BZR (Ki)
measured-parameter: Ki (µM)
Give the quantity in µM, number only.

See these solved cases before continuing.
# compound, Ki [µM]
measured = [
    ("C#Cc1ccc2c(c1)C(c1ccccc1F)=N[C@@H](C)c1c(-c3cnco3)ncn1-2 [GL-III-78]", 0.261),
    ("CCOC(=O)c1ncn2c1[C@@H](C)N=C(c1ccccc1F)c1cc(C3CC3)ccc1-2 [GL-III-42]", 0.726),
    ("C#Cc1ccc2c(c1)C(c1ccccc1F)=N[C@@H](C)c1c(C(=O)N(C)C)ncn1-2 [GL-I-54]", 0.09),
    ("C#Cc1ccc2c(c1)C(c1ccccc1F)=N[C@@H](C)c1c(C(=O)NC3CC3)ncn1-2 [GL-I-55]", 0.02),
    ("C#Cc1ccc2c(c1)C(c1ccccc1F)=N[C@H](C)c1c(C(=O)OC)ncn1-2 [MP-III-004]", 0.445),
    ("C#Cc1ccc2c(c1)C(c1ccccc1F)=N[C@H](C)c1c(C(=O)NC)ncn1-2 [MP-III-022]", 0.083),
]

API: the following record is the query input.
INPUT: For the compound shown here, Cc1noc(-c2ncn3c2[C@@H](C)N=C(c2ccccc2F)c2cc(Br)ccc2-3)n1 [GL-III-60] , give the reported Ki.
OUTPUT: 0.784

---

Catalogue of compounds with associated inhibition at 10 µM
target: δ opioid receptor (DOR) (Homo sapiens, UniProt P41143); assay: Radioligand competition binding, DOR ([3H]-DADLE), HEK293 cell homogenates; conditions: read-out: DOR % (percent inhibition), at 10,000 nM
Give the quantity in %, number only.

See these solved cases before continuing.
# molecule-smiles, numeric-value
measured = [
    ("C#Cc1ccc2c(c1)C(c1ccccn1)=NCc1c(C(=O)OC)ncn1-2", 24),
    ("C#Cc1ccc2c(c1)C(c1ccccc1F)=N[C@@H](C)c1c(C(=O)OCC(F)(F)F)ncn1-2", 0),
    ("C#Cc1ccc2c(c1)C(c1ccccc1F)=N[C@@H](C)c1c(C(=O)N(C)C)ncn1-2", 11),
    ("C#Cc1ccc2c(c1)C(c1ccccn1)=NCc1c(-c3nc(CC)no3)ncn1-2", 0),
    ("C#Cc1ccc2c(c1)C(c1ccccn1)=NCc1c(-c3nc(C)no3)ncn1-2", 0),
]

INPUT: Notebook: pull reported inhibition at 10 µM for δ opioid receptor (DOR) (Homo sapiens, UniProt P41143), entry C#Cc1ccc2c(c1)C(c1ccccc1F)=N[C@H](C)c1c(C(=O)O)ncn1-2
OUTPUT: 0

INPUT: Field entry: C[C@H]1N=C(c2ccccc2F)c2cc(Cl)ccc2-n2cnc(C(=O)O)c21
OUTPUT: 0

INPUT: Field entry: CCOC(=O)c1ncn2c1[C@@H](C)N=C(c1ccccc1F)c1cc(Br)ccc1-2
OUTPUT: 0

INPUT: Field entry: C#Cc1ccc2c(c1)C(c1ccccc1F)=NCc1c(-c3ocnc3C)ncn1-2
OUTPUT: 16

INPUT: Field entry: C[C@H]1N=C(c2ccccc2F)c2cc(Br)ccc2-n2cnc(C(=O)O)c21
OUTPUT: 0

INPUT: Field entry: C#Cc1ccc2c(c1)C(c1ccccc1F)=N[C@@H](C)c1c(C(=O)OC(C)(C)CC)ncn1-2
OUTPUT: 25
